The measured values listed here are drawn from patent US8404691B2.

targetOfAssay: Mdm2/p53 binding (Homo sapiens, UniProt Q00987, L33E)
Construct: Mdm2 amino acids at positions 25 to 108
Sequence (Q00987 25-108 L33E): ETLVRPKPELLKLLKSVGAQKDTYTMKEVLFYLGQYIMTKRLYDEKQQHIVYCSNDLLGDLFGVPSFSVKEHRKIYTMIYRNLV
protocolText: Mdm2/p53 binding assay (HTRF, His-p53 and GST-Mdm2)
runParameters: His-p53 (aa 1-132) and GST-Mdm2 (aa 25-108, L33E), 6.25 nM each, 25° C. for 1 hour
Overview of recorded IC50 for various molecules

# molecule, IC50 (nM)
data = [
    ("CC(C)C1=C(C(=O)N2C[C@H](F)C[C@H]2C(=O)N2CC3(CC3)NC[C@@H]2CF)SC2=N[C@@](C)(c3ccc(Cl)nc3)[C@@H](c3ccc(Cl)c(F)c3)N21 [Example 31]", 3.1),
    ("CC[C@@H]1CN(C(=O)C(F)(F)F)C2(CC2)CN1C(=O)[C@@H]1C[C@@H](F)CN1C(=O)C1=C(C(C)C)N2C(=N[C@@](C)(c3ccc(Cl)nc3)[C@H]2c2ccc(Cl)c(F)c2)S1 [Example 5]", 5.3),
    ("CC(C)C1=C(C(=O)N2C[C@H](F)C[C@H]2C(=O)N2CCNC3(CC3)C2)SC2=N[C@@](C)(c3ccc(Cl)nc3)[C@@H](c3ccc(Cl)c(F)c3)N21 [Example 1]", 2.8),
    ("CC[C@H]1CNC2(CC2)CN1C(=O)[C@@H]1C[C@@H](F)CN1C(=O)C1=C(C(C)C)N2C(=N[C@@](C)(c3ccc(Cl)nc3)[C@H]2c2ccc(Cl)cc2)S1 [Example 29]", 2.6),
    ("CC(C)C1=C(C(=O)N2CC(F)(F)C[C@H]2C(=O)N2CC3(CC3)NC[C@@H]2C)SC2=N[C@@](C)(c3ccc(Cl)nc3)[C@@H](c3ccc(Cl)c(F)c3)N21 [Example 9]", 4.1),
]

###

Overview of recorded IC50 for various compounds
targetOfAssay: Mdm2/p53 binding (Homo sapiens, UniProt Q00987, L33E)
Construct: Mdm2 amino acids at positions 25 to 108
protocolText: Mdm2/p53 binding assay (HTRF, His-p53 and GST-Mdm2)
runParameters: His-p53 (aa 1-132) and GST-Mdm2 (aa 25-108, L33E), 6.25 nM each, 25° C. for 1 hour

# chemSmiles, targetOfAssay, displayUnit, IC50
data = [
    ("CC(C)C1=C(C(=O)N2C[C@H](F)C[C@H]2C(=O)N2CCNC3(CC3)C2)SC2=N[C@@](C)(c3ccc(Cl)cc3)[C@@H](c3ccc(Cl)c(F)c3)N21", "Mdm2/p53 binding (Homo sapiens, UniProt Q00987, L33E)", "nM", 1.6),
    ("CC(C)C1=C(C(=O)N2C[C@H](F)C[C@H]2C(=O)N2CC3(CC3)NC[C@@H]2C)SC2=N[C@@](C)(c3ccc(Cl)cc3)[C@@H](c3ccc(Cl)cc3)N21", "Mdm2/p53 binding (Homo sapiens, UniProt Q00987, L33E)", "nM", 1.6),
    ("CC(C)C1=C(C(=O)N2C[C@H](F)C[C@H]2C(=O)N2CC3(CC3)NCC23CC3)SC2=N[C@@](C)(c3ccc(Cl)nc3)[C@@H](c3ccc(Cl)c(F)c3)N21", "Mdm2/p53 binding (Homo sapiens, UniProt Q00987, L33E)", "nM", 2.2),
]

###

targetOfAssay: Mdm2/p53 binding (Homo sapiens, UniProt Q00987, L33E)
Construct: Mdm2 amino acids at positions 25 to 108
protocolText: Mdm2/p53 binding assay (HTRF, His-p53 and GST-Mdm2)
runParameters: His-p53 (aa 1-132) and GST-Mdm2 (aa 25-108, L33E), 6.25 nM each, 25° C. for 1 hour
Procedure: Next, a test compound was diluted with DMSO to produce protein buffer solution containing 10% dilution, and this buffer solution was added in an amount of 4 μL/well to the plate. […] The R value calculated from the well supplemented with His-p53, GST-Mdm2, the test compound, and each antibody was defined as R (sample). The R value calculated from the well supplemented with His-p53, GST-Mdm2, and each antibody but without the test compound was defined as R (control). […]
pIC50: −log10 of the molar value.
outcomeMeasure: pIC50

# chemSmiles, recordedResult
measured = [
    ("CC(C)C1=C(C(=O)N2C[C@H](F)C[C@H]2C(=O)N2CC3(CC3)NC[C@H]2C(=O)O)SC2=N[C@@](C)(c3ccc(Cl)nc3)[C@@H](c3ccc(Cl)c(F)c3)N21", 7.80),
    ("CC(C)C1=C(C(=O)N2C[C@H](F)C[C@H]2C(=O)N2CCNC3(CC3)C2)SC2=N[C@@](C)(c3ccc(Cl)nc3)[C@@H](c3ccc(Cl)cc3)N21", 8.57),
    ("CC(C)C1=C(C(=O)N2C[C@H](F)C[C@H]2C(=O)N2CCN(C)C3(CC3)C2)SC2=N[C@@](C)(c3ccc(Cl)nc3)[C@@H](c3ccc(Cl)c(F)c3)N21", 8.57),
    ("CC(C)C1=C(C(=O)N2CC(F)(F)C[C@H]2C(=O)N2CC3(CC3)NC[C@H]2C)SC2=N[C@@](C)(c3ccc(Cl)nc3)[C@@H](c3ccc(Cl)c(F)c3)N21", 7.85),
    ("CC(C)C[C@@H]1CNC2(CC2)CN1C(=O)[C@@H]1C[C@@H](F)CN1C(=O)C1=C(C(C)C)N2C(=N[C@@](C)(c3ccc(Cl)nc3)[C@H]2c2ccc(Cl)c(F)c2)S1", 8.44),
]
